B1: Hairpin Ribozyme (parent)
chain: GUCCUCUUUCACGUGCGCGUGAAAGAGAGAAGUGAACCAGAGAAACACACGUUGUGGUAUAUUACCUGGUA

# Variants of: B1
# run-description: self-cleavage, relative activity (ratio to wild type); higher = more cleavage; co-transcriptional
Consider the following variants; for each one, report its self-cleavage.
Numbers only.

> print(dat)
                           residue.sequence  measured.value
1  GUCCUCUUUCACGUGCGCGUGAAAGAUAGAAGUGAACCAGAGAAACACACGUUGUGAUAUAUUACCUGGUA [G27U G57A]           0.209
2  GUCCUCUUUCACGUGCGCGUGAAAGAGAGAAGUGAACCAGUGAAACACACGUUGUGGUCUAUUACCUGGUA [A41U A59C]           0.158
3  GUCCUCUUUCACGUGCGCGCGAAAGAGAGAAGUGAACCAGGGAAACACACGUUGUGGUAUAUUACCUGGUA [U20C A41G]           0.886

Please give self-cleavage for each item listed below.
1. GUCCUCUUUCACGUGAGCGUGAAAGAGAGAAGUGAACCAGAGAAACACACGUUGUGGUUUAUUACCUGGUA [C16A A59U]
2. GUCCUCUUUCACGUGCGCGUGAAAGAGAGAAGUGAACCAGAGAAACACACGUUGUGGUAUCUUCCCUGGUA [A61C A64C]

Ans:
[0.212, 0.0878]
